Provide the recorded isobaric coefficient of expansion for the entries that follow.
Experiment: isobaric coefficient of expansion
Settings: 288.15 K; 20000 kPa; Liquid; Microcalorimeter

Hey, can you go through the list below and give me isobaric coefficient of expansion for every item?
1. CCCCCCn1cc[n+](C)c1.F[B-](F)(F)F [1-hexyl-3-methylimidazolium tetrafluoroborate]
2. CCCCCCCC[n+]1ccn(C)c1.F[B-](F)(F)F [1-methyl-3-octylimidazolium tetrafluoroborate]
3. CCn1cc[n+](C)c1.O=S(=O)([N-]S(=O)(=O)C(F)(F)F)C(F)(F)F
4. CCn1cc[n+](C)c1.F[B-](F)(F)F [1-ethyl-3-methylimidazolium tetrafluoroborate]
5. CCCCCC[n+]1ccn(C)c1.O=S(=O)([N-]S(=O)(=O)C(F)(F)F)C(F)(F)F
6. CCCC[n+]1cccc(C)c1.F[B-](F)(F)F [1-butyl-3-methylpyridinium tetrafluoroborate]

1: 0.000593 1/K; 2: 0.000593 1/K; 3: 0.00064 1/K; 4: 0.000587 1/K; 5: 0.000637 1/K; 6: 0.000585 1/K

====

Experiment: isobaric coefficient of expansion
Conditions: 298.15 K; 10000 kPa; Liquid; Microcalorimeter
Assay metric: isobaric coefficient of expansion

Compound | isobaric coefficient of expansion
CCn1cc[n+](C)c1.O=S(=O)([N-]S(=O)(=O)C(F)(F)F)C(F)(F)F | 0.000651 1/K
CCCCCCCC[n+]1ccn(C)c1.F[B-](F)(F)F [1-methyl-3-octylimidazolium tetrafluoroborate] | 0.000603 1/K
CCCCCC[n+]1ccn(C)c1.O=S(=O)([N-]S(=O)(=O)C(F)(F)F)C(F)(F)F | 0.000654 1/K
CCn1cc[n+](C)c1.F[B-](F)(F)F [1-ethyl-3-methylimidazolium tetrafluoroborate] | 0.000596 1/K
CCCC[n+]1cccc(C)c1.F[B-](F)(F)F [1-butyl-3-methylpyridinium tetrafluoroborate] | 0.000589 1/K

Proceed to the following item.
Determine its reported isobaric coefficient of expansion: CCCCCCn1cc[n+](C)c1.F[B-](F)(F)F [1-hexyl-3-methylimidazolium tetrafluoroborate]
0.000603 1/K

====

Please go through the items and note down their isobaric coefficient of expansion.
Assay: isobaric coefficient of expansion
Conditions: 308.15 K; 35000 kPa; Liquid; Microcalorimeter

Molecule | isobaric coefficient of expansion
CCCC[n+]1cccc(C)c1.F[B-](F)(F)F [1-butyl-3-methylpyridinium tetrafluoroborate] | 0.000555 1/K
CCCCCCn1cc[n+](C)c1.F[B-](F)(F)F [1-hexyl-3-methylimidazolium tetrafluoroborate] | 0.00056 1/K
CCn1cc[n+](C)c1.O=S(=O)([N-]S(=O)(=O)C(F)(F)F)C(F)(F)F | 0.000605 1/K
CCn1cc[n+](C)c1.F[B-](F)(F)F [1-ethyl-3-methylimidazolium tetrafluoroborate] | 0.000554 1/K
CCCCCC[n+]1ccn(C)c1.O=S(=O)([N-]S(=O)(=O)C(F)(F)F)C(F)(F)F | 0.0006 1/K

Please examine the following record next.
Specify reported isobaric coefficient of expansion for the molecule shown: CCCCCCCC[n+]1ccn(C)c1.F[B-](F)(F)F [1-methyl-3-octylimidazolium tetrafluoroborate]
0.00056 1/K

====

Test: isobaric coefficient of expansion
Details: 278.15 K; 10000 kPa; Liquid; Microcalorimeter
Assay metric: isobaric coefficient of expansion

Below, each entry is followed by its recorded isobaric coefficient of expansion result.
Compound | Assay result
CCCCCCCC[n+]1ccn(C)c1.F[B-](F)(F)F [1-methyl-3-octylimidazolium tetrafluoroborate] | 0.000613 1/K
CCn1cc[n+](C)c1.F[B-](F)(F)F [1-ethyl-3-methylimidazolium tetrafluoroborate] | 0.000605 1/K
CCCC[n+]1cccc(C)c1.F[B-](F)(F)F [1-butyl-3-methylpyridinium tetrafluoroborate] | 0.000601 1/K
CCn1cc[n+](C)c1.O=S(=O)([N-]S(=O)(=O)C(F)(F)F)C(F)(F)F | 0.000659 1/K
CCCCCCn1cc[n+](C)c1.F[B-](F)(F)F [1-hexyl-3-methylimidazolium tetrafluoroborate] | 0.000613 1/K

Answer with the recorded isobaric coefficient of expansion of CCCCCC[n+]1ccn(C)c1.O=S(=O)([N-]S(=O)(=O)C(F)(F)F)C(F)(F)F only.
0.000662 1/K

Data credit: the NIST ThermoML archive (doi:10.1021/je900482x)
